protein stability index reference
B1: ATE1 (parent)
chain: YGSFHQQYWLDGKIIAVGVIDILP

- Variants of: B1
- METHOD_DESCRIPTION: protein stability index of a GFP-peptide fusion (GPS, HEK-293T) (PSI 1-6); higher = more stable;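 note: lentivirally expressed fusions sorted by FACS into six bins by GFP to DsRed ratio, PSI derived from sequencing read proportions per bin multiplied by bin number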
- RUN_PARAMETERS: c terminus: a fixed tail appended
RECORDED_ENDPOINT: protein stability index

>>> measurement("YGSFHQDYWLDGKIIAVGVIDILP [Q7D]")
2.72
>>> measurement("YGSFHQQNWLDGKIIAVGVIDILP [Y8N]")
3.57
>>> measurement("YGSFHQQYWLDGKIIAVGVEDILP [I20E]")
1.65
>>> measurement("YGSFYQQYWLDGKIIAVGVIDILP [H5Y]")
3.26
>>> measurement("YGSFHQQYWNDGKIIAVGVIDILP [L10N]")
3.14
>>> measurement("YHSFHQQYWLDGKIIAVGVIDILP [G2H]")
2.47
>>> measurement("YGSFHQQYWLDGKIIAVGFIDILP [V19F]")
3.06
>>> measurement("YGSHHQQYWLDGKIIAVGVIDILP [F4H]")
2.83
>>> measurement("YGSFHQQYWLDGWIIAVGVIDILP [K13W]")
1.94
>>> measurement("YGSFHQQYWLDGKIIARGVIDILP [V17R]")
3.21
>>> measurement("YGSFHQQYVLDGKIIAVGVIDILP [W9V]")
3.47
>>> measurement("HGSFHQQYWLDGKIIAVGVIDILP [Y1H]")
2.79
>>> measurement("YGSFHQQYWLDGKIIADGVIDILP [V17D]")
2.26
>>> measurement("YGSFHQQYQLDGKIIAVGVIDILP [W9Q]")
1.69
>>> measurement("YGSFHQQYWLDGKAIAVGVIDILP [I14A]")
3.24
>>> measurement("YGSFHQQYWLDGKIIAVGIIDILP [V19I]")
2.64
>>> measurement("YGSFHQQYWLDGKIIAVGVIDILQ [P24Q]")
2.51
>>> measurement("YGSFHQQYWLDCKIIAVGVIDILP [G12C]")
2.02
>>> measurement("YSSFHQQYWLDGKIIAVGVIDILP [G2S]")
1.91
>>> measurement("YGSFHQQYWLDGKIIAVGVIDSLP [I22S]")
3.81
>>> measurement("YGSFHQQYWLDGKINAVGVIDILP [I15N]")
2.59
>>> measurement("YGSFHQQYWLDGKIIAVGVIVILP [D21V]")
4.01

Source: the supplement of paper PMC10567573
